Where do these numbers come from? They come from patent US9006450B2.

target: human ACC2 (Homo sapiens, UniProt O00763); construct: made in house; host or cells: insect cells (baculoviral expression system); assay: ACC2 assay, spectrophotometric 384 well assay (NADH-linked, coupled lactate dehydrogenase/pyruvate kinase); assay type: biochemical; conditions: ACC2 assay, hACC2 construct lacking 128 N-terminal amino acids, 25° C., 340 nm; read-out: IC50
Sequence (O00763 129-2458 limits assumed): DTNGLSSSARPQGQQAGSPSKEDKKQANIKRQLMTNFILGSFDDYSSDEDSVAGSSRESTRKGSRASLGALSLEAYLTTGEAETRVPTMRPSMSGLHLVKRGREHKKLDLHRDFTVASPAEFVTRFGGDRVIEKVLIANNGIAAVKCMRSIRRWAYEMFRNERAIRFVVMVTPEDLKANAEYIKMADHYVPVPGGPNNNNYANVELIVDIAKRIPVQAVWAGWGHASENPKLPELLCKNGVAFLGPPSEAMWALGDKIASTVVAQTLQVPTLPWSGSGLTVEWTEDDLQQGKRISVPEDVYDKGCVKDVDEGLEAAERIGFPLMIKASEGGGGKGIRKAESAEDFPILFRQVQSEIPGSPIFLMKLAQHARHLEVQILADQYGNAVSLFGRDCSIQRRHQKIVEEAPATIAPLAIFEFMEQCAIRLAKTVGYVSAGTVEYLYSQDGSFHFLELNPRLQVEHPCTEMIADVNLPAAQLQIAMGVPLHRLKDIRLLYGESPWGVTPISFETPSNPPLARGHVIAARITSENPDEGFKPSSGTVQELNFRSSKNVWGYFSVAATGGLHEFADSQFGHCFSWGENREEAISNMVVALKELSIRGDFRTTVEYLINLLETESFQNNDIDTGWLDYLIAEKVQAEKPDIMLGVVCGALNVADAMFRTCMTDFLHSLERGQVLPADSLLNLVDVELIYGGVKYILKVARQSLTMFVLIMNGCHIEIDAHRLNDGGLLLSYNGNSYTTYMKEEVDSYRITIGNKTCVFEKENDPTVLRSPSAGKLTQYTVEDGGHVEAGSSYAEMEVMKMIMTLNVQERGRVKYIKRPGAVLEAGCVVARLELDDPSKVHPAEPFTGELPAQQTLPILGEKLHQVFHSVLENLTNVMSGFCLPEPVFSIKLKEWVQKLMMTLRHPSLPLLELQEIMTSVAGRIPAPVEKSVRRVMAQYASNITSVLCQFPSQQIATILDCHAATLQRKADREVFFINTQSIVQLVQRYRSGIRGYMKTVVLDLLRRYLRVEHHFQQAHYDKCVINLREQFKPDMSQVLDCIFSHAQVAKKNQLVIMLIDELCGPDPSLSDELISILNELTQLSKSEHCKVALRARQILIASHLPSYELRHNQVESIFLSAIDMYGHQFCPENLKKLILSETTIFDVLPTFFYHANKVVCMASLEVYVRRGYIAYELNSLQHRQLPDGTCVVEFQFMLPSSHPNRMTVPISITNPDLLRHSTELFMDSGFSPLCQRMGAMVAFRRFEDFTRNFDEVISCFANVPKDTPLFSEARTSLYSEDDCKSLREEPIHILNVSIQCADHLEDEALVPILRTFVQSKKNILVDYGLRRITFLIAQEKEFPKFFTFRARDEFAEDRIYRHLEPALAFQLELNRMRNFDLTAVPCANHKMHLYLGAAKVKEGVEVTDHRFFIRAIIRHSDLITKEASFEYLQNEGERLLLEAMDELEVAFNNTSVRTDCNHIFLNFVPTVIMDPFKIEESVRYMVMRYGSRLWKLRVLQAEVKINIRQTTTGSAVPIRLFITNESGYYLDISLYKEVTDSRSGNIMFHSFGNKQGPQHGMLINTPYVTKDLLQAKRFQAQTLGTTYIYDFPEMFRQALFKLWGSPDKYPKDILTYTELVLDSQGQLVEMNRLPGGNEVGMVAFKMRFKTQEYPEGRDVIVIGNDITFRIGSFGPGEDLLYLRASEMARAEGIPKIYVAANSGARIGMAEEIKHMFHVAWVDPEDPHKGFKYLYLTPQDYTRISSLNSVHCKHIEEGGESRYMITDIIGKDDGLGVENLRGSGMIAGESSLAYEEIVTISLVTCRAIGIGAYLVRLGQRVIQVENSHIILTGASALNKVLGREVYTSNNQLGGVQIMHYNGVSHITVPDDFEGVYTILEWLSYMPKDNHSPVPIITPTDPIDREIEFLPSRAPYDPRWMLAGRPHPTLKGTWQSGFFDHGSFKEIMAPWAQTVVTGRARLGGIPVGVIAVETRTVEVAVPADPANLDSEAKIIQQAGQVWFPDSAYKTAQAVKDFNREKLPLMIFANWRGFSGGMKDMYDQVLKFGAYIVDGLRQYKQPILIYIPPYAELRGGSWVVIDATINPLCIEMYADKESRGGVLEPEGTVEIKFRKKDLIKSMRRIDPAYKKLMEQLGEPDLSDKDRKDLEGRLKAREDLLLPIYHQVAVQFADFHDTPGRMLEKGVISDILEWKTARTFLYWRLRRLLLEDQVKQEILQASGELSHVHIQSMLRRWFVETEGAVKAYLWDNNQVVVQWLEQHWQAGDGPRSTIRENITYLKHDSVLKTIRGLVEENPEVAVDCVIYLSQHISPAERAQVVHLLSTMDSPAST
pIC50: −log10 of the molar value.
RECORDED ENDPOINT: pIC50

// below: answered compounds
C[C@H](NC(=O)C1CC1)c1ccc(C2CCN(c3ccc(OC4CCC4)cc3)CC2)cc1 | 7.30
CC(=O)N[C@@H](C)c1ccc(C2CCN(c3ncc(OCC4CC4(F)F)cn3)CC2)cc1 (some centres unmarked) | 6.80

[A] CC(=O)N[C@@H](C)c1ccc(C2CCN(c3ncc(C4CC4)cc3F)CC2)cc1
[B] CC(=O)N[C@@H](C)c1ccc(C2CCN(c3ccc(OC4CCC4)c(Cl)c3)CC2)cc1
[C] CC(=O)N[C@@H](C)c1ccc(C2CCN(c3ccnc(OCc4ccccc4F)c3)CC2)cc1
[D] CCC(C)Oc1ccc(N2CCC(c3ccc([C@H](C)NC(C)=O)cc3)CC2)cc1OC (some centres unmarked)
Req: Arrange by pIC50, high to low. List the labels according to the requested ordering.
Resp: B, A, C, D

[I] CCOc1cc(N2CCC(c3ccc([C@H](C)NC(C)=O)cc3)CC2)ccn1
[II] C[C@H](NC(=O)C1CC1)c1ccc(C2CCN(c3ncnc(N4CCCC4)c3F)CC2)cc1
Req: Select the item with the higher value of pIC50 from the options I and II listed. // caller expects the label of the chosen entry
Resp: II

[1] C[C@H](NC(=O)N(C)C)c1ccc(C2CCN(c3cccc(OCC4CC4)c3)CC2)cc1
[2] CC(=O)N[C@@H](C)c1ccc(C2CCN(c3ccnc(N4CCCCC4)n3)CC2)cc1
[3] CC(=O)N[C@@H](C)c1ccc(C2CCN(c3ncc4nc(-c5ccsc5)oc4n3)CC2)cc1
[4] CC(=O)N[C@@H](C)c1ccc(C2CCN(c3csc(-c4ccc(C(F)(F)F)cn4)n3)CC2)cc1
[5] CCN1CCCC1CNC(=O)c1cnc(N2CCC(c3ccc([C@H](C)NC(C)=O)cc3)CC2)nc1 (some centres unmarked)
Req: Could you please order the items by pIC50, going from the lowest number to the highest? List the labels according to the requested ordering.
Resp: 5, 1, 2, 4, 3

[a] CC(=O)N[C@@H](C)c1ccc(C2CCN(c3cccc(OC4CCOCC4)c3)CC2)cc1
[b] CC(=O)N[C@@H](C)c1ccc(C2CCN(c3ccc(OCCOC4CC4)cc3)CC2)cc1
Req: Select the item with the higher value of pIC50 from the options a and b listed. // caller expects the label of the chosen entry
Resp: a
(a: 6.72, b: 5.32)

* * *

molecular target: human ACC2 (Homo sapiens, UniProt O00763); construct: made in house; host or cells: insect cells (baculoviral expression system); test: ACC2 assay, spectrophotometric 384 well assay (NADH-linked, coupled lactate dehydrogenase/pyruvate kinase); format: biochemical; settings: ACC2 assay, hACC2 construct lacking 128 N-terminal amino acids, 25° C., 340 nm; read-out: IC50
pIC50: −log10 of the molar value.
RECORDED ENDPOINT: pIC50

// below: answered molecules
CC(=O)N[C@@H](C)c1ccc(C2CCN(c3cc(N4Cc5ccccc5C4)ncn3)CC2)cc1 | 6.12
CCC(=O)N[C@@H](C)c1ccc(C2CCN(c3ncc(C4CC4)cn3)CC2)cc1 | 5.74
CC(=O)N[C@@H](C)c1ccc(C2CCN(c3ncc(F)cn3)CC2)cc1 | 6.03
CC(=O)N[C@@H](C)c1ccc(C2CCN(c3ccc(OCc4ccccc4)nc3)CC2)cc1 | 6.89
C[C@H](NC(=O)C1CC1)c1ccc(C2CCN(c3ncc(-c4ccoc4)cn3)CC2)cc1 | 6.77

[1] CC(=O)N[C@@H](C)c1ccc(C2CCN(c3ccc(OCC4CC4)c(F)c3)CC2)cc1
[2] CC(C)COc1ccc(N2CCC(c3ccc([C@H](C)NC(=O)C4CC4)cc3)CC2)cc1
Req: Select the item with the higher value of pIC50 from the options 1 and 2 listed. // caller expects the label of the chosen entry
Resp: 2
(2: 6.89, 1: 6.66)
